Form field: pIC50 (one value per entry).
target: Prostaglandin D2 receptor 2 (Homo sapiens); experiment: Displacement of [3H]-PGD2 from human CRTH2 receptor expressed in human HEK293 cells by scintillation counter in presence of 0.5% bovine serum albumin; format: cell-based
Sequence (Q9Y5Y4 whole entry): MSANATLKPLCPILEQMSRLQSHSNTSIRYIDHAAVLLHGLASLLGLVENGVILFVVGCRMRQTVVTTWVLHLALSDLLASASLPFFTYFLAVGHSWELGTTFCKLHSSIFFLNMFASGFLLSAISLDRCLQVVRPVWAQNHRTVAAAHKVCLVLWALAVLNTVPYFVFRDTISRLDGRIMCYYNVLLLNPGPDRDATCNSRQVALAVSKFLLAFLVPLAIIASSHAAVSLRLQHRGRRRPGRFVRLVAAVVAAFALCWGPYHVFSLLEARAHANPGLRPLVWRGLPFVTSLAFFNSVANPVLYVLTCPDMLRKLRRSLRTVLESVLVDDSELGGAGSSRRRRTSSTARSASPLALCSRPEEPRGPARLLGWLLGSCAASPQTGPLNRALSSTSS
Scale: negative log10 of molar concentration, which is what pIC50 denotes.

{"COMPOUND": "CC(C)(C)NC(=O)c1ccc(Oc2cc(F)c(CC(=O)O)cc2Cl)c(NS(=O)(=O)c2ccc(OC(F)(F)F)cc2Cl)c1", "pIC50": 8.05}
{"COMPOUND": "O=C(O)Cc1ccc(Oc2ccc(C(=O)NC3CCC3)cc2NS(=O)(=O)c2ccc(Cl)cc2)c(Cl)c1", "pIC50": 8.22}

Moving on to the next compound.
Task item: For the compound shown here, `O=C(O)Cc1cc(Cl)c(Oc2ccc(C(=O)NC3CCC3)cc2NS(=O)(=O)c2ccc(OC(F)(F)F)cc2Cl)cc1F` , give the reported pIC50.
Reply: 8.30
